Target: T1, human MSLN-R2-his protein (human, UniProt Q13421 391-486)
T1 construct: Region 2 of human mesothelin, made in HEK293E cells, His-tagged; also called human MSLN-R2 protein; hMSLN-R2-his; not shown: His tag
T1 sequence (Q13421 other isoform, or with tags, fused parts or gaps): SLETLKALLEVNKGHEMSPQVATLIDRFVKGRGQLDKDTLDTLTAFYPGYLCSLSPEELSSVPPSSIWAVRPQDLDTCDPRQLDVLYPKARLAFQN
Assay: ELISA on coated MSLN-R2; antibody 0.0001 nM
Observed property: OD450 (OD450)
Report only the number, with the unit OD450 understood.

{"Binder": "S009-F8-31.22 (antibody, human IgG1, kappa, V domains shown) VH: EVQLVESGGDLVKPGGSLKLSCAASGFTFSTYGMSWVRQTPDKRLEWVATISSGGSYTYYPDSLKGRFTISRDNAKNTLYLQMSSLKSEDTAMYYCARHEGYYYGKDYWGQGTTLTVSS VL: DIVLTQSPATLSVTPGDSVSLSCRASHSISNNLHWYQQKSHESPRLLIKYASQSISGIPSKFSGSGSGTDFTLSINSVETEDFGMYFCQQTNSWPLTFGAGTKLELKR", "OD450 [OD450]": 0.05}
{"Binder": "S009-F8-15.19 (antibody, human IgG1, kappa, V domains shown) VH: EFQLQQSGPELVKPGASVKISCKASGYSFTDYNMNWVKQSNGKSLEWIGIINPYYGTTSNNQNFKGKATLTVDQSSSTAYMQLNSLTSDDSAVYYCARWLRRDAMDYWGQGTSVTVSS VL: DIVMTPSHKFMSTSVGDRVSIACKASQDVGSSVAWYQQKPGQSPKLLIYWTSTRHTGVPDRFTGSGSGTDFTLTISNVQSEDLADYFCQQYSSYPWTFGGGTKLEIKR", "OD450 [OD450]": 0.05}
{"Binder": "S009-F8-18.9 (antibody, human IgG1, kappa, V domains shown) VH: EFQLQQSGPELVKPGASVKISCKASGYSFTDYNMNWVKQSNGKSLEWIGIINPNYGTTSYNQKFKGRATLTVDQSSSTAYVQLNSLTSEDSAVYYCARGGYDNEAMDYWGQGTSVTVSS VL: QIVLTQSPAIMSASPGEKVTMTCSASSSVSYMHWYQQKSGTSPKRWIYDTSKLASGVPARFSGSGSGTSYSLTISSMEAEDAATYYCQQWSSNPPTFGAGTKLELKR", "OD450 [OD450]": 0.04}
{"Binder": "S009-F8-28.23 (antibody, human IgG1, kappa, V domains shown) VH: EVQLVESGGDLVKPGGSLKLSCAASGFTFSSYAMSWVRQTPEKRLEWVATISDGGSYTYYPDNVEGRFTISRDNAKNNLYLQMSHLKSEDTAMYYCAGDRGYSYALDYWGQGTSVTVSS VL: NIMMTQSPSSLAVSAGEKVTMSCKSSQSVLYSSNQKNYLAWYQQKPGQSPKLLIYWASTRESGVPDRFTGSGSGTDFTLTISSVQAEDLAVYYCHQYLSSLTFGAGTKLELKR", "OD450 [OD450]": 0.04}
{"Binder": "S009-F8-12.13 (antibody, human IgG1, kappa, V domains shown) VH: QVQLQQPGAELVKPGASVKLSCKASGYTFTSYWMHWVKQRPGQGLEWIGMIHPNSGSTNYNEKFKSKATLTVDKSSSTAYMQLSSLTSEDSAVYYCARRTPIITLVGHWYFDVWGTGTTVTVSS VL: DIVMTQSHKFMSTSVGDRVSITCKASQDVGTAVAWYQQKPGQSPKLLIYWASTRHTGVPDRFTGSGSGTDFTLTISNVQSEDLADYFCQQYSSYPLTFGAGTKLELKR", "OD450 [OD450]": 0.04}

Query (binder): S009-F8-27.1 (antibody, human IgG1, kappa, V domains shown) VH: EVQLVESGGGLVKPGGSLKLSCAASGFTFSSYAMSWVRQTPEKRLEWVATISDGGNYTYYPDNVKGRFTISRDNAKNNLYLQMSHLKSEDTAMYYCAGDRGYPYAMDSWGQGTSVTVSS VL: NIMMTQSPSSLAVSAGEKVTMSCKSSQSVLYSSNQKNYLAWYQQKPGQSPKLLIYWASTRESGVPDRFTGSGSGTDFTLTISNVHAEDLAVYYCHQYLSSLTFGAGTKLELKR ; field requested: OD450
0.04

# input binder: S009-F8-24.14 (antibody, human IgG1, kappa, V domains shown) VH: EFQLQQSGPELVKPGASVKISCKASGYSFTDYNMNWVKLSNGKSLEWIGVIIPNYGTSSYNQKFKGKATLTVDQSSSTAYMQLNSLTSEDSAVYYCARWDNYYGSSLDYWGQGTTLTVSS VL: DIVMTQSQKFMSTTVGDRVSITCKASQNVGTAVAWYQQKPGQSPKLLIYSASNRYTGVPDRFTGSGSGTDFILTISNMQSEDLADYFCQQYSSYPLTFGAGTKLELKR ; wanted: its OD450
0.04
